Each item that follows carries a reported viability.
# EXPERIMENTAL PROTOCOL: HUVEC growth inhibition – cell-based, human, primary screen (AID 575);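 also: 100% = median of untreated cell wells with 0.1% DMSO on each plate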
# CONDITION DETAILS: HUVEC proliferation, CellTiter-Glo luminescence, 72 h; at 10 µM; active compounds read low
Answer with a number only, understood to be in %.

Example entries and their recorded answers appear below.
INPUT: Could you share which viability value was measured for Cn1c(=O)oc2cc(S(=O)(=O)N3CCC(C(=O)Nc4ccc(OC(F)(F)F)cc4)CC3)ccc21 ?
OUTPUT: 91.4

INPUT: What value of measured viability is listed for COCCCNS(=O)(=O)c1ccc2c(c1)CCN2C(C)=O ?
OUTPUT: 102

INPUT: viability for CCN(CC)S(=O)(=O)c1ccc(NC(=O)CN(c2cccc(F)c2)S(C)(=O)=O)cc1 ?
OUTPUT: 88.7

INPUT: I'd like to know its viability. The compound in question is O=C(c1cc(S(=O)(=O)N2CCOCC2)ccc1F)N1CCCc2ccccc21
OUTPUT: 102

---
INPUT: viability lookup needed for CCCC(=O)Nc1cccc(NC(=O)CN2CCN(c3ccccc3OC)CC2)c1 , thanks.
OUTPUT: 96.6
